Test protocol: qHTS assay to identify small molecule antagonists of the estrogen related receptor (ERR) signaling pathway from Tox21 library (AID 1224848); further: nearly all actives have a fitted effect of over 50% in size; further: potency means the concentration at half of the fitted maximal effect
Condition context: ERR reporter cell line, luciferase antagonist mode, 18 h; series mostly up to 92.4 µM
Results filed as inconclusive are left out. The source made the active and inactive calls. The call rests on the fitted dose curve; in most records, active means well fitted inhibition curve with a large enough effect in the repeat runs; inconclusive means weak or mixed curves; inactive means no such curve, though single readings can be large or run the other way.
Endpoint: Potency

The following molecules have reported results that may help.
{"columns": ["Molecule", "Endpoint", "Reported measurement"],
 "data": [
  ["CCC1(CO)COCOC1", "Potency", "inactive"],
  ["NC(=O)c1ccncc1", "Potency", "inactive"],
  ["COC(=O)[C@H]1[C@H]2C[C@@H]3c4[nH]c5cc(OC)ccc5c4CCN3C[C@H]2C[C@@H](OC(=O)/C=C/c2ccc(O)c(OC)c2)[C@@H]1OC", "Potency", "10.6 µM (active)"],
  ["CC(O)c1ccccc1 (stereo not given)", "Potency", "inactive"],
  ["COc1ncnc(NS(=O)(=O)c2ccc(N)cc2)c1OC", "Potency", "inactive"]
]}

Task item: Form field: reported Potency of `O=c1cc(-c2ccccc2)oc2ccc3ccccc3c12`
Reply: inactive

Task item: Can you share its Potency? I mean this molecule: `O=C(O)CCCCCCCCCCCBr`
Reply: inactive

Task item: Entry `Oc1cc2c(cc1O)[C@H]1c3ccc(O)c(O)c3OC[C@@]1(O)C2` has what Potency?
Reply: 49.2 µM (active)

* * *

Test protocol: qHTS assay to identify small molecule antagonists of the constitutive androstane receptor (CAR) signaling pathway - cell viability counter screen (AID 1224837); further: nearly all actives have a fitted effect of over 45% in size
Condition context: HepG2-CYP2B6-hCAR viability, CellTiter-Fluor, 23 h, co-treated with 50 nM CITCO; series mostly up to 92.4 µM
Protocol: National Center for Advancing Translational Sciences [NCATS] NIH Chemical Genomics Center [NCGC] U.S. Environmental Protection Agency [EPA] National Institutes of Environmental Health Sciences [NIEHS] National Toxicology Program [NTP] […] A double-stable (hCAR and CYP2B6-2.2kb) transfected cell line, derived from human hepatoma (HepG2) cells, was utilized for the duration of the quantitative high-throughput screens. […] The fluorescence intensity in the plates was then measured using a ViewLux plate reader.
Results filed as inconclusive are left out. Calls of active or inactive are those of the source. Calls come from the whole dose curve; as a rule, active = well fitted cell-killing curve with a large enough effect in the repeat runs; inconclusive = weak or mixed curves, or effect the other way; inactive = flat fitted curve, though single readings scatter.
Classes to choose from: active, inactive

{"columns": ["Molecule", "Assigned class"],
 "data": [
  ["CCCCN1CCCC1C(=O)Nc1c(C)cc(C)cc1C (stereo not given)", "inactive"],
  ["CN1C(=O)OC(C)(C)C1=O", "inactive"]
]}

Task item: Could you kindly confirm the outcome this assay logged for `CCC(=O)OC` ?
Reply: inactive

Task item: Entry CCC(=O)C1CC(C(C)C)CC=C1C (stereo not given) : call = ?
Reply: inactive

* * *

Target system: Estrogen receptor (Homo sapiens)
Test protocol: qHTS assay to identify small molecule agonists of the estrogen receptor alpha (ER-alpha) signaling pathway (AID 743075);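 further: HEK293 GripTite cells with ER-alpha and UAS-driven beta-lactamase reporter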
Condition context: HEK293 ER-alpha-UAS-bla, beta-lactamase FRET ratio, 18 h; series mostly up to 70.1 µM
Records with an inconclusive call do not appear. Calls of active or inactive are those of the source. The call rests on the fitted dose curve.
The categories you may choose from are y = active, n = inactive

{"columns": ["Molecule", "Target system", "Assigned class"],
 "data": [
  ["C=C1c2cccc(O)c2C(O)=C2C(=O)[C@]3(O)C(O)=C(C(N)=O)C(=O)[C@@H](N(C)C)[C@@H]3[C@@H](O)[C@H]12", "Estrogen receptor (Homo sapiens)", "n"],
  ["N#CCc1ccc(Cl)cc1Cl", "Estrogen receptor (Homo sapiens)", "n"],
  ["Clc1ccc(Nc2nnc(Cc3ccncc3)c3ccccc23)cc1", "Estrogen receptor (Homo sapiens)", "n"]
]}

Task item: Please state the recorded outcome for this molecule: `Cc1ccccc1N=C(N)Nc1ccccc1C`
Reply: n

Task item: Record lookup: outcome of this test for `C=C1C[C@@]23CC[C@H]4[C@@](C)(CCC[C@@]4(C)C(=O)O[C@@H]4O[C@H](CO)[C@@H](O)[C@H](O)[C@H]4O)[C@@H]2CC[C@]1(O[C@@H]1O[C@H](CO)[C@@H](O)[C@H](O[C@@H]2O[C@H](CO)[C@@H](O)[C@H](O)[C@H]2O)[C@H]1O[C@@H]1O[C@H](CO)[C@@H](O)[C@H](O)[C@H]1O)C3` ?
Reply: n

Task item: Given `NCCNCCO` , state the outcome it received in this test.
Reply: n
